Where do the numbers come from? From ChEMBL document CHEMBL1201862.

system: KM-20L2; assay: NCI tumour cell line growth inhibition, 48 h
Where a name gives a salt, the structure may show the parent alone. Calls of active or inactive are those of the source. No stated cut-off is given here; in the data, active = GI50 up to about 1.1 µM and inactive = higher.
# GI50 listing for each entry below
Property: GI50

Compound | Result
CC(=O)NCc1c(C(N)=O)ncn1Cc1ccccc1 | > 100 µM (inactive)
O=C1C2C(C(=O)N1Cc1ccccc1)N(Cc1ccccc1)C(=O)N2Cc1ccccc1 (centres undefined) | > 100 µM (inactive)
C1CN2CCO[SiH](O1)OCC2 | > 100 µM (inactive)
C[C@H](N)C(=O)N[C@@H]1[C@H]2C(=C(O)C[C@@H](O)[C@@H]2O)C(=O)O[C@@H]1C | > 100 µM (inactive)
Cc1nccc2c1[nH]c1cc(O)ccc12 [HARMOL HYDROCHLORIDE] | > 100 µM (inactive)
CC(=O)Oc1ccc(O)c2c1CCCC2 | > 100 µM (inactive)
CN(N=O)C(=O)N[C@H]1C(O)O[C@H](CO)[C@@H](O)[C@@H]1O (some centres undefined) | > 750 µM (inactive)
CC(=O)OC1COC(N2C(=O)C(=O)c3ccccc32)C(OC(C)=O)C1OC(C)=O (centres undefined) | > 100 µM (inactive)
O=c1[nH]c(=O)n(C2CC(O)C(CO)O2)cc1C#Cc1cc(F)cc(F)c1 (centres undefined) | > 10 µM (inactive)
COc1ccc(/C=C2/CSC/C(=C/c3ccc(OC)c(OC)c3)C2=O)cc1OC | 2.3 µM (inactive)
O=C1C[C@H](c2ccc(O)c(O)c2)Oc2cc(O)cc(O)c21 | > 100 µM (inactive)
CCCCC1(C(NC(=O)c2ccccc2Cl)c2ccncc2)C(=O)N(c2ccccc2)N(c2ccccc2)C1=O (centres undefined) | 59.7 µM (inactive)
COC(=O)C1=C(C)N2CCSC2(C)C(C(=O)OC)C1c1cccc(Cl)c1 (centres undefined) | 17.5 µM (inactive)
COc1c2c(c3ccccc3c1O)C1C=CC2C1 (centres undefined) | 22.3 µM (inactive)
